Known melting point of a selection of compounds

{"Compound": "N#CCCN(C(=O)CCC(=O)O)c1ccccc1", "melting point": "98 to 100 °C"}
{"Compound": "NC(=O)c1ccccc1OCc1cccc(C(=O)O)c1", "melting point": "238 to 240 °C"}
{"Compound": "Nc1cc(Br)ccc1N1CCOCC1", "melting point": "153 to 155 °C"}
{"Compound": "CC(C)(C)c1nc(=N)s[nH]1", "melting point": "160 to 162 °C"}
{"Compound": "COc1ccc(C(=O)c2ccccc2C(=O)O)cc1F", "melting point": "147 to 149 °C"}
{"Compound": "CS(=O)(=O)c1ccc(Br)c(S(=O)(=O)Cl)c1", "melting point": "160 to 162 °C"}
{"Compound": "OCC1CSc2ccccc2O1 (configuration not stated)", "melting point": "89 to 91 °C"}
{"Compound": "Nc1ccc2nc(S)oc2c1", "melting point": "208 to 210 °C"}
{"Compound": "Nc1ccc(F)c(NC(=O)C2CC2)c1", "melting point": "121 to 123 °C"}
{"Compound": "CC(CN1CCOCC1)C(=O)NN (configuration not stated)", "melting point": "86 to 88 °C"}
{"Compound": "O=C(O)C1=NN(c2ccc(Cl)cc2)C(=O)CC1", "melting point": "161 to 163 °C"}
{"Compound": "O=C(O)CCc1ccc([N+](=O)[O-])cn1", "melting point": "135 to 137 °C"}
{"Compound": "COc1ccc(C(O)c2ccc(OC)cc2C)cc1 (configuration not stated)", "melting point": "71 to 73 °C"}
{"Compound": "Cc1ccc(Cl)c2ccc(=O)[nH]c12", "melting point": "254 to 256 °C"}
{"Compound": "Nc1cnn(-c2ccccc2F)c1", "melting point": "59 to 61 °C"}
{"Compound": "O=C(O)COc1ccc(Cl)c2ccccc12", "melting point": "162 to 164 °C"}
{"Compound": "COC(=O)c1ccc(C(=O)OC)c(NC(=O)C(C)Cl)c1 (configuration not stated)", "melting point": "128 to 130 °C"}
{"Compound": "CN(Cc1c(F)cccc1Cl)C(=O)CCl", "melting point": "54 to 56 °C"}
{"Compound": "O=C(O)c1c[nH]nc1-c1ccc(F)cc1", "melting point": "302 to 304 °C"}
{"Compound": "CC(=O)NCc1ccc(S(N)(=O)=O)s1", "melting point": "121 to 123 °C"}
{"Compound": "Fc1ccc2oc(Cl)nc2c1", "melting point": "33 to 35 °C"}
{"Compound": "N=c1sccn1CC(=O)O", "melting point": "243 to 247 °C"}

----------
{"Compound": "CCCCNS(=O)(=O)c1ccc(N)c(N)c1", "melting point": "48 to 52 °C"}
{"Compound": "NC(=O)C1CCCCN1C(=O)c1cccc(Br)c1 (configuration not stated)", "melting point": "177 to 179 °C"}
{"Compound": "Cc1nc(N)sc1Cc1ccccc1Cl", "melting point": "126 to 128 °C"}
{"Compound": "O=Cc1c(Cl)nc2ccccn12", "melting point": "124 to 126 °C"}
{"Compound": "Cc1nc(-c2cccs2)c(CC(=O)O)s1", "melting point": "159 to 161 °C"}
{"Compound": "CS(=O)(=O)Nc1ccc(N)cc1Cl", "melting point": "181 to 183 °C"}
{"Compound": "O=C(O)c1cc([N+](=O)[O-])c(F)cc1Br", "melting point": "171 to 173 °C"}
{"Compound": "Cc1cc2c(cc1C)OC(C(=O)O)C2 (configuration not stated)", "melting point": "149 to 151 °C"}
{"Compound": "CCOC(=O)C(C)=NNc1ccc(Br)cc1CC", "melting point": "68 to 70 °C"}
{"Compound": "Nc1cccnc1-n1cncn1", "melting point": "110 to 112 °C"}
{"Compound": "C=CCNc1ccc(C(F)(F)F)cc1C#N", "melting point": "54 to 56 °C"}
{"Compound": "Sc1ncc(-c2ccc(Br)cc2)[nH]1", "melting point": "210 to 212 °C"}

----------
Known melting point of a selection of compounds

{"Compound": "CNC(=O)CCC(F)(F)F", "melting point": "111 to 113 °C"}
{"Compound": "CCc1[nH]ncc1C(=O)O", "melting point": "229 to 231 °C"}
{"Compound": "Cc1ccc(Br)cc1N", "melting point": "31 to 33 °C"}
{"Compound": "Sc1nnc(COc2ccc(Cl)cc2)n1Cc1ccccc1", "melting point": "211 to 213 °C"}
{"Compound": "Cc1ccc(S(=O)(=O)Cl)c(C)c1C(=O)O", "melting point": "147 to 149 °C"}
{"Compound": "COc1ccc(C(N)=NO)cn1", "melting point": "162 to 164 °C"}
{"Compound": "CCOC(=O)/C(C#N)=C\\Nc1ccc(OC(F)F)cc1", "melting point": "101 to 103 °C"}
{"Compound": "CN(C)S(=O)(=O)c1ccc(N)cc1", "melting point": "119 to 162 °C"}
{"Compound": "O=C(NC1CCS(=O)(=O)C1)OCC(F)(F)F (centres undefined)", "melting point": "79 to 81 °C"}
{"Compound": "CC(C)(C)c1nc(CC(=O)O)cs1", "melting point": "94 to 96 °C"}
{"Compound": "CC(=O)CCc1ccc2c(c1)OCO2", "melting point": "50 to 52 °C"}
{"Compound": "Nc1ccc(-c2n[nH]c(=O)[nH]2)cc1", "melting point": "333 to 335 °C"}
{"Compound": "Cn1cnc(-c2ccc(N)cc2)n1", "melting point": "138 to 140 °C"}
{"Compound": "CS(=O)(=O)c1ccccc1CC(=O)O", "melting point": "154 to 156 °C"}
{"Compound": "CC(C)(CN)C(N)=O", "melting point": "72 to 74 °C"}
{"Compound": "O=C(O)Cn1ccc(=O)c2ccccc21", "melting point": "274 to 276 °C"}
{"Compound": "Cn1ncc2c(=O)n(CCC(=O)O)cnc21", "melting point": "212 to 214 °C"}
{"Compound": "COc1ccc(C)cc1-c1csc(N)n1", "melting point": "205 to 207 °C"}
{"Compound": "Cn1cc(CC(=O)O)cn1", "melting point": "121 to 123 °C"}
{"Compound": "COc1cc(NC(=O)C2CC2C)c(C(=O)O)cc1OC (centres undefined)", "melting point": "207 to 209 °C"}
{"Compound": "O=C(O)CNS(=O)(=O)C=Cc1ccccc1", "melting point": "80 to 82 °C"}
{"Compound": "CCCC(NC(N)=O)C(=O)O (centres undefined)", "melting point": "170 to 172 °C"}
{"Compound": "O=C(O)C=Cc1cnc2ccccc2n1", "melting point": "233 to 235 °C"}
{"Compound": "O=C(O)c1csc(-c2ccc(F)cc2)n1", "melting point": "196 to 198 °C"}

----------
{"Compound": "CCc1ccc(-n2nc(C(=O)O)c3c2CCC3)cc1", "melting point": "183 to 185 °C"}
{"Compound": "CC(=O)c1c(C)nc2ccccc2c1N", "melting point": "152 to 154 °C"}
{"Compound": "Cc1ccn2ncc(C(=O)O)c2n1", "melting point": "256 to 258 °C"}
{"Compound": "CCOC(=O)c1sc(N)c(C(N)=O)c1C", "melting point": "197 to 199 °C"}
{"Compound": "O=C(O)c1ccccc1C(=O)c1ccc2c(c1)OCCO2", "melting point": "168 to 170 °C"}
{"Compound": "O=C(CCC1CCCO1)NC1CCC(C(=O)O)CC1 (configuration not stated)", "melting point": "199 to 201 °C"}
{"Compound": "Nc1ccc(S(=O)(=O)C(F)F)cc1", "melting point": "102 to 104 °C"}
{"Compound": "CC(C)(C)Oc1ccc(C(N)=S)cc1", "melting point": "179 to 181 °C"}
{"Compound": "Cc1ccc(C(=O)NN)o1", "melting point": "59 to 61 °C"}
{"Compound": "O=Cc1cnc2ncccn12", "melting point": "197 to 199 °C"}
{"Compound": "COc1cccc(C(=O)NN)c1OC", "melting point": "77 to 79 °C"}
{"Compound": "Cc1cccc([N+](=O)[O-])c1I", "melting point": "67 to 69 °C"}
{"Compound": "Cc1c(O)ccc2c(CCl)cc(=O)oc12", "melting point": "268 to 270 °C"}
{"Compound": "N#Cc1cc([N+](=O)[O-])cnc1O", "melting point": "259 to 261 °C"}
{"Compound": "NC(=S)c1cccc([N+](=O)[O-])c1", "melting point": "132 to 134 °C"}
{"Compound": "Cc1csc(=O)n1CCBr", "melting point": "47 to 51 °C"}
{"Compound": "CCOc1ccc2ccccc2c1CO", "melting point": "49 to 51 °C"}
{"Compound": "COC(=O)C(C)(N)C(c1ccccc1)c1ccccc1 (configuration not stated)", "melting point": "68 to 70 °C"}
{"Compound": "O=C1CCOc2ccc(Br)cc21", "melting point": "73 to 75 °C"}
{"Compound": "O=c1[nH]nc(-c2ccc(F)cc2)c2ccccc12", "melting point": "270 to 272 °C"}
{"Compound": "COc1cc(C(=O)O)cc(N)c1OC", "melting point": "135 to 137 °C"}
{"Compound": "Nc1cnccc1O", "melting point": "156 to 158 °C"}
{"Compound": "C1=CCC(c2nc3ccccc3[nH]2)CC1 (configuration not stated)", "melting point": "209 to 211 °C"}
{"Compound": "Cn1ccc(CCl)cc1=O", "melting point": "64 to 66 °C"}
{"Compound": "O=C(NC(Cc1ccccc1)C(=O)O)c1cccnc1 (configuration not stated)", "melting point": "206 to 208 °C"}
{"Compound": "CC(=O)c1ccc(NS(=O)(=O)c2ccc(Cl)cc2)cc1", "melting point": "132 to 134 °C"}
{"Compound": "O=C(O)CSCc1coc(-c2ccccc2)n1", "melting point": "124 to 126 °C"}
{"Compound": "O=C1COc2cc(C(=O)O)ccc2N1", "melting point": "321 to 323 °C"}
{"Compound": "CC(C)(C)OC(=O)Nc1cccc(O)c1", "melting point": "135 to 137 °C"}
{"Compound": "N#CCNc1cccc(Cl)c1", "melting point": "51 to 53 °C"}
{"Compound": "Cc1c(C(=O)O)nnn1-c1ccc2ncccc2c1", "melting point": "219 to 221 °C"}
{"Compound": "Nc1ncncc1-c1ccccc1", "melting point": "155 to 157 °C"}
{"Compound": "Cc1nc(NCCc2ccccc2)sc1C(=O)O", "melting point": "170 to 172 °C"}
{"Compound": "Cn1cnnc1-c1ccc(N)cc1", "melting point": "256 to 258 °C"}
{"Compound": "NNC(=O)CCc1ccccc1", "melting point": "99 to 101 °C"}
{"Compound": "Nc1cccc(N2CCN(CCc3ccccc3)CC2)c1", "melting point": "96 to 98 °C"}
{"Compound": "O=C1COc2c(F)cc(Br)cc21", "melting point": "102 to 104 °C"}
{"Compound": "O=C(O)C1CSCN1C(=O)c1c[nH]c2ccccc12 (configuration not stated)", "melting point": "159 to 161 °C"}
{"Compound": "CCN1C(=O)C(=O)c2ccc(Br)cc21", "melting point": "118 to 120 °C"}
{"Compound": "N#Cc1cccc(C(=O)N2CCCCC2)c1", "melting point": "61 to 63 °C"}
{"Compound": "Nc1ccc2c(c1)CC(=O)N2", "melting point": "190 to 192 °C"}
{"Compound": "Nc1ccc(F)c(F)c1N", "melting point": "114 to 117 °C"}
